# assayed target: TNFα (Homo sapiens)
# Sequence (P01375 77-233 limits assumed): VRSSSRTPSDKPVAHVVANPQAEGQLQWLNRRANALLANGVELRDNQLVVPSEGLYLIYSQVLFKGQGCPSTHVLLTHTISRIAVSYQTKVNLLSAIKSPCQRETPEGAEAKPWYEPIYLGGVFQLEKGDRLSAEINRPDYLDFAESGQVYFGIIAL
# experimental protocol: In vitro L929 cell proliferation/cytotoxicity assay, TNFα activity inhibition
# condition: L929 cell line, TNFα 0.1 ng/ml, Act D 2 μg/ml; read-out: IC50 as TNFα antagonist
pIC50: −log10 of the molar value.
readout name: pIC50

| compound | experimental result |
| --- | --- |
| C=C1CC[C@@H]2[C@](C)(CO)[C@H](O)CC[C@@]2(C)[C@@H]1C/C=C1/C(=O)OC[C@H]1O [andrographolide, Andrographolide] | 4.22 |
